biological target: Ribosomal protein S6 kinase beta-1 (Homo sapiens) (UniProt P23443); conditions: at 1 µM;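 further: values are mean inhibition of p70S6K1, measured as part of the GSK PKIS panel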
Sequence (P23443 whole entry, looked up): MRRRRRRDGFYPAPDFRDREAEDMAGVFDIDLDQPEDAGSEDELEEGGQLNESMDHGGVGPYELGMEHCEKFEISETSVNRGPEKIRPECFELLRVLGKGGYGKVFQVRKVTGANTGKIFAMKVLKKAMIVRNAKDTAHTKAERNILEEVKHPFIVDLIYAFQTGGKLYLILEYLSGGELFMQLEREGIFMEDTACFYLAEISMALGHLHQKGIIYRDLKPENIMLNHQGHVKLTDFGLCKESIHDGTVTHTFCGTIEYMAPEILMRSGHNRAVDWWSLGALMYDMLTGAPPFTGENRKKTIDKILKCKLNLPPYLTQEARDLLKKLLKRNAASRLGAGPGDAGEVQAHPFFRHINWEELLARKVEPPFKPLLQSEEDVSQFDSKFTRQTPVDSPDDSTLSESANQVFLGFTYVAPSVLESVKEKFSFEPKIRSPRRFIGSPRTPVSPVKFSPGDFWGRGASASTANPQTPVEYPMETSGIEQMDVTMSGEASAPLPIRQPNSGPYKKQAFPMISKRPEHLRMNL
So basically: inhibition at 4% or higher? That is fulfilled. Lower than 4%? That is not fulfilled.

Look over these answered cases.
CCN(CC)Cc1ccc(Nc2nccc(-c3cnn4ncccc34)n2)cc1 fulfilled
NS(=O)(=O)c1ccc(Nc2cc(-c3ccc(O)c(F)c3)n[nH]2)cc1 fulfilled
C[C@@H](Oc1cc(-n2cnc3ccc(OCC4CCN(C)CC4)cc32)sc1C(N)=O)c1ccccc1Cl fulfilled
CS(=O)(=O)CCNCc1ccc(-c2ccc3ncnc(Nc4ccc(OCc5ccccc5)c(Br)c4)c3c2)o1 not fulfilled

# check: inhibition of `COc1cccc(/C=N/Nc2ncnc3c2cnn3-c2cccc(OC)c2)c1` is greater than or equal to 4% not fulfilled

----------
system: Platelet-derived growth factor receptor alpha (Homo sapiens), P16234 [T674I]; settings: at 0.1 µM
Sequence (P16234 whole entry T674I): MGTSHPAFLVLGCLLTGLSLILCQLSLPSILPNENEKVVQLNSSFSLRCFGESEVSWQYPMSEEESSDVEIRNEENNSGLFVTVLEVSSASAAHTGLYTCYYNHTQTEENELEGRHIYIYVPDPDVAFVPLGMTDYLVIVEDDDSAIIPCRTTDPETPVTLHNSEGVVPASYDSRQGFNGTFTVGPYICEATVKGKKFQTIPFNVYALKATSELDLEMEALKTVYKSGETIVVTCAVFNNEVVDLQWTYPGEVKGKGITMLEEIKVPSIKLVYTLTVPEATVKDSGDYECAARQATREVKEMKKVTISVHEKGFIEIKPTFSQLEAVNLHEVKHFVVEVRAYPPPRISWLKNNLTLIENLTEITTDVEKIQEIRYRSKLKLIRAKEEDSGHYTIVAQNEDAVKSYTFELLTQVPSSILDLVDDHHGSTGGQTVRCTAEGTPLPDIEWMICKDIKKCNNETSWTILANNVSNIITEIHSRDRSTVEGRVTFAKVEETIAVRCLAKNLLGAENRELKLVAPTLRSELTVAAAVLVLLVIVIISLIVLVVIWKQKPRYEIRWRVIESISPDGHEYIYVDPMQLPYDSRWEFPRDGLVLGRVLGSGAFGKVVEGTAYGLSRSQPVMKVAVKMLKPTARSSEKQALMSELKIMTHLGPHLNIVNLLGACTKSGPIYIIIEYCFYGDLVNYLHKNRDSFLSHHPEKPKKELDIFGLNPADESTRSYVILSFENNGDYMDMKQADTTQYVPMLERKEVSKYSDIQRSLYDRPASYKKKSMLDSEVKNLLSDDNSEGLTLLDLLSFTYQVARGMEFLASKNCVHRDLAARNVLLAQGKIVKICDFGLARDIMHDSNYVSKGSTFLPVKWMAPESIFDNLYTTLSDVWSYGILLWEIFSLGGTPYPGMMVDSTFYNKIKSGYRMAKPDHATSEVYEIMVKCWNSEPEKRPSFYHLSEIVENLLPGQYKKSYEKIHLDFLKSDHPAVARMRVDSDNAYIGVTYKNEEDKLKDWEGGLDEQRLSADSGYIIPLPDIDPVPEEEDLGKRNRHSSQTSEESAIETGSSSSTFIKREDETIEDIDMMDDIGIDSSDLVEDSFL
measured.property: inhibition (%)
Give bare numbers, in %.

Examples from the recorded data:
molecule	experimental.system	scale.unit	inhibition
CCS(=O)(=O)c1ccc(OC)c(Nc2ncc(-c3ccccc3Cl)o2)c1	Platelet-derived growth factor receptor alpha (Homo sapiens), P16234 [T674I]	%	0.38
NCc1ccc(-n2c(-c3nonc3N)nc3cnccc32)cc1	Platelet-derived growth factor receptor alpha (Homo sapiens), P16234 [T674I]	%	8.3
CN(C)CCOc1ccc(-c2cc(-c3ccc4c(c3)CCC4=NO)c(-c3ccncc3)o2)cc1	Platelet-derived growth factor receptor alpha (Homo sapiens), P16234 [T674I]	%	-0.07
O=C(Nc1n[nH]c2nc(-c3ccco3)ccc12)C1CC1	Platelet-derived growth factor receptor alpha (Homo sapiens), P16234 [T674I]	%	4.27
COc1cccc(-n2cnc3c(N/N=C/c4ccncc4)ncnc32)c1	Platelet-derived growth factor receptor alpha (Homo sapiens), P16234 [T674I]	%	2.14

Items follow; give inhibition for each.
1. Cc1ccc(C(=O)NC(C)C)cc1-c1ccc(C(=O)NCC2CC2)cc1
2. C[C@@H](Oc1cc(-n2cnc3ccc(OC4CCN(C)CC4)cc32)sc1C(N)=O)c1ccccc1Cl
3. O=C1NC(=O)C(c2cccc(Cl)c2)=C1Nc1ccc(Cl)c(C(=O)O)c1
4. CN(C)c1ccc2c(c1)/C(=C/Nc1ccc(S(N)(=O)=O)cc1)C(=O)N2
5. CCc1nccc2c1nc(-c1nonc1N)n2CC
6. Fc1ccc(-c2ncn(C3CCNCC3)c2-c2ccnc(Oc3ccc(F)c(F)c3)n2)cc1
7. COc1ccc(-c2ccc3c(NC(=O)C4CC4)n[nH]c3n2)cc1

1.13
8.48
6.92
3.45
2.57
1.08
3.4

# batch: return inhibition for each of the 6 molecules below
1. COc1ccc(C2=C(N3CCc4ccccc43)C(=O)NC2=O)cc1
2. CCN(CC)Cc1ccc(Nc2nccc(-c3cnn4ncccc34)n2)cc1
3. NC(=O)c1cc(-c2ccncc2)cc(-c2ccccc2)c1N
4. C[C@@H](Oc1cc(-n2cnc3ccc(OCC4CCN(C)CC4)cc32)sc1C(N)=O)c1ccccc1Cl
5. CCc1ccc(Oc2nccc(-c3c(-c4ccc(F)cc4)ncn3C3CCNCC3)n2)cc1
6. Nc1nccc(-c2c(-c3ccc(F)cc3)ncn2C2CCC(O)CC2)n1 (stereo not drawn)

1. 7.16
2. 6.93
3. 5.87
4. 12.7
5. 4.41
6. 0.95

----------
biological target: Tyrosine-protein kinase SYK (Homo sapiens) (UniProt P43405); settings: at 1 µM
Description: GSK_PKIS: SYK mean inhibition at 1 uM [Nanosyn]
measured.property: inhibition (%)
Answers are plain numbers, in %.

CCc1ccc(Oc2nccc(-c3c(-c4ccc(F)cc4)ncn3C3CCNCC3)n2)cc1 2.45
CS(=O)(=O)CCNCc1cc(-c2cc3c(Nc4ccc(OCc5cccc(F)c5)c(Cl)c4)ncnc3s2)cs1 1.7
COc1cc(N2CCN(C(C)C)CC2)ccc1Nc1nc(Nc2ccc(F)cc2C(=O)NC[C@@H](O)CO)c2cc[nH]c2n1 -2.57

Now examine the next entry.
The recorded inhibition for entry `CN1CCN(CCCNc2nc3ccc(Oc4ccc(NC(=O)Nc5cc(C(F)(F)F)ccc5F)cc4)cc3[nH]2)CC1` equals 0.86
